Tested on: U251 human glioblastoma cell line
Assay explanation: in vitro FM-HCR assay of MGMT activity (mPlum O^6MeG reporter plasmid)
Assay type: cell-based
Conditions used: 0.1% DMSO; U251 cells; flow cytometry 24 h after transfection; damaged/undamaged reporter; inversely related to MGMT activity
So I've got a bunch of molecules here, and I need their Reporter expression (%) mean, DMSO values.
Give bare numbers, in %.

Molecule	Measured quantity	Endpoint value
Y158H: MGMT polypeptide with mutation Y158H (protein) MDKDCEMKRTTLDSPLGKLELSGCEQGLHEIKLLGKGTSAADAVEVPAPAAVLGGPEPLMQCTAWLNAYFHQPEAIEEFPVPALHHPVFQQESFTRQVLWKLLKVVKFGEVISYQQLAALAGNPKAARAVGGAMRGNPVPILIPCHRVVCSSGAVGNHSGGLAVKEWLLAHEGHRLGKPGLGGSSGLAGAWLKGAGATSGSPPAGRN	Reporter expression (%) mean, DMSO	23.3

Let us move to another entry and its Reporter expression (%) mean, DMSO.
**Query** GET /values?readout=Reporter expression (%) mean, DMSO&item= G160D: MGMT polypeptide with mutation G160D (protein) MDKDCEMKRTTLDSPLGKLELSGCEQGLHEIKLLGKGTSAADAVEVPAPAAVLGGPEPLMQCTAWLNAYFHQPEAIEEFPVPALHHPVFQQESFTRQVLWKLLKVVKFGEVISYQQLAALAGNPKAARAVGGAMRGNPVPILIPCHRVVCSSGAVGNYSDGLAVKEWLLAHEGHRLGKPGLGGSSGLAGAWLKGAGATSGSPPAGRN
**Result** 23.0
